- Tested Target: pseudo-kinase domain (JH2) of human Wild Type JAK2 (Homo sapiens, UniProt O60674, F794H/W659A/W777A)
- Construct: pseudo-kinase domain (JH2, amino-acids 536-812 with 3 surface mutations W659A, W777A, F794H); His (C)
- Sequence (O60674 536-812 W659A/W777A/F794H): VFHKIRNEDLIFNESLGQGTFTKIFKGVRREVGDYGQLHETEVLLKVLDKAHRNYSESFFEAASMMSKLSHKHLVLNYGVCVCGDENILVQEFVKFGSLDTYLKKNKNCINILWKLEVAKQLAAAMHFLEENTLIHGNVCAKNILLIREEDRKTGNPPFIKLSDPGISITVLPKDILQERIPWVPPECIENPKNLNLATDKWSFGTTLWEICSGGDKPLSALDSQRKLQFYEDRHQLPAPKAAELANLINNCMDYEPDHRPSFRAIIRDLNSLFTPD
- Protocol Text: JAK2 LanthaScreen JH2-WT Binding Assay
- Experimental Parameters: 50 nM Fluorescent JAK2-JH2 Tracer, 1 hour at 25° C.
pIC50: −log10 of the molar value.
# pIC50 annotations

Cpd Smiles: CN(C)S(=O)(=O)c1ccc(-c2[nH]c3nc(N)[nH]c(=O)c3c2-c2cccc(C(=O)O)c2)cc1
pIC50: 6.30 to 7.00
//
Cpd Smiles: CN(C)S(=O)(=O)c1ccc(-c2[nH]c3nc(N)[nH]c(=O)c3c2-c2cccc3c2OCCO3)cc1
pIC50: 6.00 to 6.30
//
Cpd Smiles: CC(C)c1cccc(-c2c(-c3ccc(S(=O)(=O)N(C)C)cc3)[nH]c3nc(N)[nH]c(=O)c23)c1
pIC50: < 5.60
//
Cpd Smiles: Nc1nc2[nH]c(-c3ccccc3)c(-c3ccccc3OC(F)F)c2c(=O)[nH]1
pIC50: < 5.60
//
Cpd Smiles: Cc1cccc(-c2c(-c3ccc(C(=O)N(C)C)cc3)[nH]c3nc(N)[nH]c(=O)c23)c1
pIC50: 6.00 to 6.30
//
Cpd Smiles: Nc1nc2[nH]c(-c3ccccc3)c(-c3ccccc3C(F)(F)F)c2c(=O)[nH]1
pIC50: < 5.60

Proceed to the following item.
// recorded pIC50 for CN(C)S(=O)(=O)c1ccc(-c2[nH]c3nc(N)[nH]c(=O)c3c2-c2cccc3c2OCC(=O)N3)cc1 : 6.30 to 7.00

---

# pIC50 annotations
- Tested Target: catalytic domain (JH1) of human JAK2 (Homo sapiens, UniProt O60674)
- Construct: catalytic domain (JH1, amino acids 826-1132) of human JAK2; FLAG (N)
- Sequence (O60674 826-1132): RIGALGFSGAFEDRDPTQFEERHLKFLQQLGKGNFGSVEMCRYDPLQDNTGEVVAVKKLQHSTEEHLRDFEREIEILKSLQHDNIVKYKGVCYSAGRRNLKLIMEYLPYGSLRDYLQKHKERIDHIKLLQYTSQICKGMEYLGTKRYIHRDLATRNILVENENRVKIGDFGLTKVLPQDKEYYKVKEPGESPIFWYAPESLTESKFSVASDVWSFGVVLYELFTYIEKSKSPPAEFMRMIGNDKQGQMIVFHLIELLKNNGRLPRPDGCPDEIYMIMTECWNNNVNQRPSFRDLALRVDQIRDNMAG
- Protocol Text: JAK2 LanthaScreen JH1 Binding Assay
- Experimental Parameters: 50 nM Fluorescent JAK2-JH1 Tracer, 2 hours at 25° C.
pIC50: −log10 of the molar value.

Worked cases, pIC50 given:
Molecule: CN(C)S(=O)(=O)c1ccc(-c2[nH]c3nc(N)[nH]c(=O)c3c2-c2ccc(C(F)F)cc2)cc1 [Example 9]
pIC50: 5.60 to 6.00

Molecule: CN(C)S(=O)(=O)c1ccc(-c2[nH]c3nc(N)[nH]c(=O)c3c2-c2cccc(CN)c2)cc1 [Example 45]
pIC50: < 5.60

Molecule: CNC(=O)c1ccc(-c2c(-c3ccc(S(=O)(=O)N(C)C)cc3)[nH]c3nc(N)[nH]c(=O)c23)cc1 [Example 11]
pIC50: 5.60 to 6.00

Molecule: COc1ccc(OC)c(-c2c(-c3ccc(S(=O)(=O)N(C)C)cc3)[nH]c3nc(N)[nH]c(=O)c23)c1 [Example 25]
pIC50: < 5.60

Molecule: COc1ncccc1-c1c(-c2ccc(S(=O)(=O)N(C)C)cc2)[nH]c2nc(N)[nH]c(=O)c12 [Example 28]
pIC50: < 5.60

// recorded pIC50 for CN(C)S(=O)(=O)c1ccc(-c2[nH]c3nc(N)[nH]c(=O)c3c2-c2cccc(C(N)=O)c2)cc1 [Example 14] : 5.60 to 6.00

// recorded pIC50 for CN(C)S(=O)(=O)c1ccc(-c2[nH]c3nc(N)[nH]c(=O)c3c2-c2ccnn2C)cc1 [Example 46] : < 5.60

---

# IC50 annotations
- Tested Target: catalytic domain (JH1) of human JAK2 (Homo sapiens)
- Construct: catalytic domain (JH1, amino acids 826-1132) of human JAK2; FLAG (N)
- Protocol Text: JAK2 LanthaScreen JH1 Binding Assay
- Experimental Parameters: 50 nM Fluorescent JAK2-JH1 Tracer, 2 hours at 25° C.

Worked cases, IC50 given:
Compound: COc1nn(Cc2ccc(C(=O)O)cc2)cc1-c1c(-c2ccc(S(=O)(=O)N(C)C)cc2)[nH]c2nc(N)[nH]c(=O)c12 [Example 50]
Tested Target: catalytic domain (JH1) of human JAK2 (Homo sapiens)
Observed Result: > 2.5 µM
--
Compound: COc1ccccc1-c1c(-c2ccccc2)[nH]c2nc(N)[nH]c(=O)c12 [Example 57]
Tested Target: catalytic domain (JH1) of human JAK2 (Homo sapiens)
Observed Result: > 2.5 µM
--
Compound: CN(C)S(=O)(=O)c1ccc(-c2[nH]c3nc(N)[nH]c(=O)c3c2-c2cccc(C(=O)O)c2)cc1 [Example 34]
Tested Target: catalytic domain (JH1) of human JAK2 (Homo sapiens)
Observed Result: > 2.5 µM

// recorded IC50 for COc1ccc(Cl)cc1-c1c(-c2ccc(S(=O)(=O)N(C)C)cc2)[nH]c2nc(N)[nH]c(=O)c12 [Example 27] : > 2.5 µM

// recorded IC50 for CCc1c(-c2ccccc2)[nH]c2nc(N)[nH]c(=O)c12 [Example 55] : > 2.5 µM

// recorded IC50 for COc1cccc(-c2c(-c3ccc(S(=O)(=O)N(C)C)cc3)[nH]c3nc(N)[nH]c(=O)c23)c1OC [Example 43] : > 2.5 µM

// recorded IC50 for CN(C)S(=O)(=O)c1ccc(-c2[nH]c3nc(N)[nH]c(=O)c3c2-c2ccccc2C#N)cc1 [Example 18] : > 2.5 µM

// recorded IC50 for CN(C)S(=O)(=O)c1ccc(-c2[nH]c3nc(N)[nH]c(=O)c3c2-c2ccccc2F)cc1 [Example 64] : 0.1 to 0.5 µM

---

- Tested Target: pseudo-kinase domain (JH2) of human Wild Type JAK2 (Homo sapiens, UniProt O60674, F794H/W659A/W777A)
- Construct: pseudo-kinase domain (JH2, amino-acids 536-812 with 3 surface mutations W659A, W777A, F794H); His (C)
- Protocol Text: JAK2 LanthaScreen JH2-WT Binding Assay
- Experimental Parameters: 50 nM Fluorescent JAK2-JH2 Tracer, 1 hour at 25° C.
pIC50: −log10 of the molar value.
# pIC50 annotations

Worked cases, pIC50 given:
Compound: CN(C)S(=O)(=O)c1ccc(-c2[nH]c3nc(N)[nH]c(=O)c3c2-c2cccc3c2OCCC3)cc1 [Example 10]
Observed Result: 6.00 to 6.30
--
Compound: COc1ccc(C(F)(F)F)cc1-c1c(-c2ccc(S(=O)(=O)N(C)C)cc2)[nH]c2nc(N)[nH]c(=O)c12 [Example 24]
Observed Result: 5.60 to 6.00

// recorded pIC50 for CN(C)S(=O)(=O)c1ccc(-c2[nH]c3nc(N)[nH]c(=O)c3c2-c2cccc3c2OCO3)cc1 [Example 44] : 6.30 to 7.00

// recorded pIC50 for CN(C)S(=O)(=O)c1ccc(-c2[nH]c3nc(N)[nH]c(=O)c3c2-c2cccc(C#N)c2)cc1 [Example 17] : 6.00 to 6.30

// recorded pIC50 for CN(C)S(=O)(=O)c1ccc(-c2[nH]c3nc(N)[nH]c(=O)c3c2-c2cccc3c2OCCN3)cc1 [Example 49] : 6.00 to 6.30

// recorded pIC50 for CN(C)S(=O)(=O)c1ccc(-c2[nH]c3nc(N)[nH]c(=O)c3c2-c2cnn(Cc3ccncc3)c2)cc1 [Example 32] : 5.60 to 6.00

// recorded pIC50 for CN(C)S(=O)(=O)c1ccc(-c2[nH]c3nc(N)[nH]c(=O)c3c2-c2cnn(Cc3cccc(C(=O)O)c3)c2)cc1 [Example 51] : 6.00 to 6.30

// recorded pIC50 for COc1ccccc1-c1c(-c2ccc(CN3CCC(S(C)(=O)=O)CC3)cc2)[nH]c2nc(N)[nH]c(=O)c12 [Example 53] : 6.30 to 7.00

// recorded pIC50 for CN(C)S(=O)(=O)c1ccc(-c2[nH]c3nc(N)[nH]c(=O)c3c2C2=CCCC2)cc1 [Example 47] : 6.30 to 7.00

// recorded pIC50 for CN(C)S(=O)(=O)c1ccc(-c2[nH]c3nc(N)[nH]c(=O)c3c2-c2cnn(Cc3ccc(C(=O)O)cc3)c2)cc1 [Example 52] : 6.30 to 7.00

// recorded pIC50 for COc1ccc(OC)c(-c2c(-c3ccc(S(=O)(=O)N(C)C)cc3)[nH]c3nc(N)[nH]c(=O)c23)c1 [Example 25] : 6.00 to 6.30

// recorded pIC50 for CN(C)S(=O)(=O)c1ccc(-c2[nH]c3nc(N)[nH]c(=O)c3c2-c2cnn(C3CCOCC3)c2)cc1 [Example 37] : < 5.60

// recorded pIC50 for CN(C)S(=O)(=O)c1ccc(-c2[nH]c3nc(N)[nH]c(=O)c3c2-c2cccc3c2OCC3)cc1 [Example 41] : 6.30 to 7.00

// recorded pIC50 for CN(C)S(=O)(=O)c1ccc(-c2[nH]c3nc(N)[nH]c(=O)c3c2-c2ccc(C(=O)O)cc2)cc1 [Example 35] : 6.30 to 7.00

// recorded pIC50 for COc1ccccc1-c1c(-c2ccc(S(=O)(=O)N(C)C)cc2)[nH]c2nc(N)[nH]c(=O)c12 [Example 65] : 6.30 to 7.00

Taken from patent US11919908B2.
